Details: buffer; pH 7.4; 200.0 µM
quantityName: log10(solubility kinetic) (log10 of the value in µg/mL)
Answers are given as log10 of solubility kinetic in µg/mL.

[
  {
    "compound": "O=C(COC(=O)c1cccc(F)c1)NCCC1=CCCCC1",
    "log10(solubility kinetic)": 0.98
  },
  {
    "compound": "COC(=O)c1ccc(NC(=O)C2CCCN(S(C)(=O)=O)C2)cc1 (stereo unspecified)",
    "log10(solubility kinetic)": 1.50
  },
  {
    "compound": "O=S(=O)(Nc1cccc(CCc2ccccn2)c1)c1cc(Cl)ccc1Cl",
    "log10(solubility kinetic)": 0.96
  },
  {
    "compound": "COc1ccccc1CNC(=O)c1cc(C)nc2ccccc12",
    "log10(solubility kinetic)": 1.62
  },
  {
    "compound": "O=C(COC(=O)C1CC1)Nc1ccc(Cl)cc1Cl",
    "log10(solubility kinetic)": 1.62
  },
  {
    "compound": "Cc1nc(C(F)(F)F)ccc1C(=O)Nc1ccc2ccccc2n1",
    "log10(solubility kinetic)": 0.52
  }
]

Provide reported log10(solubility kinetic) for each item, in the same order as listed.
1. Cc1ccccc1CNC(=O)c1ccc2ccccc2n1
2. CC1Cc2ccccc2N1C(=O)COC(=O)c1ccc(Cl)nc1 (stereo unspecified)

[reply]
1: 0.96; 2: 1.05

---

Details: buffer; pH 7.4; 200.0 µM
quantityName: solubility kinetic

Field: example entries. Status: answers known.
[
  {
    "molecule": "CC1CCCC(C)N1CC(O)COCc1ccccc1F.Cl (stereo not given)",
    "solubility kinetic": "45.6 µg/mL"
  },
  {
    "molecule": "Nc1nnc(CC(=O)Nc2ccccc2)s1",
    "solubility kinetic": "> 35.1 µg/mL"
  },
  {
    "molecule": "Cc1c(C(=O)N2CCOCC2)sc(NC(=O)CCl)c1C#N",
    "solubility kinetic": "> 49.2 µg/mL"
  },
  {
    "molecule": "CCC[C@H](N[C@@H](CCC)[C@H](O)c1ccccc1)[C@H](O)c1ccccc1",
    "solubility kinetic": "5.4 µg/mL"
  },
  {
    "molecule": "Oc1cccc(C=Nc2cccc3ccccc23)c1O",
    "solubility kinetic": "18.3 µg/mL"
  },
  {
    "molecule": "CCOC(=O)c1c(C)n(Cc2ccc(F)cc2)c2ccc(O)cc12",
    "solubility kinetic": "< 0.7 µg/mL"
  },
  {
    "molecule": "COc1cc(OC)c(C2CC(=O)N3CN(C)CSC3=C2C#N)cc1OC (stereo not given)",
    "solubility kinetic": "43.3 µg/mL"
  },
  {
    "molecule": "COCCCNC(=S)Nc1ccccc1[N+](=O)[O-]",
    "solubility kinetic": "> 40.4 µg/mL"
  }
]

Provide solubility kinetic for all items below, preserving their order.
1. O=C1CCCCCCCCCC/C(=N\O)CCCO1
2. CC1C=CCC2C(=O)N(c3ccc(OC(=O)c4ccco4)cc3)C(=O)C12 (stereo not given)
3. O=C(NCCOc1ccccc1F)C1CC(=O)N(Cc2ccccc2)C1 (stereo not given)
4. O=C(Nc1cccnc1)c1cccc(S(=O)(=O)N2CCCCC2)c1
5. CC(=O)NC(CC(=O)O)c1ccccc1 (stereo not given)
6. Cc1cccc(NC(=O)NC2CCCc3ccccc32)c1 (stereo not given)
7. CN1C(=O)c2ccccc2N(C)C1c1cccc(O)c1 (stereo not given)
8. COC(=O)[C@H](C)NC(=O)NCc1ccc(S(N)(=O)=O)cc1

[reply]
["9.8 µg/mL", "18 µg/mL", "> 53.5 µg/mL", "> 51.8 µg/mL", "> 31.1 µg/mL", "0.7 µg/mL", "38.1 µg/mL", "> 47.3 µg/mL"]

# map each molecule to its solubility kinetic
1. O=C(Cc1ccc(Cl)cc1)NNC(=O)C1CC=CCC1C(=O)O (stereo not given)
2. Cn1c(=O)c2c(nc3n2CC(CO)O3)n(C)c1=O (stereo not given)

[reply]
1: > 50.5 µg/mL; 2: > 37.8 µg/mL

I would be grateful if you could provide solubility kinetic for each of the following entries.
1. CC(=NCc1ccco1)c1c(O)n(-c2ccc(C)cc2)c(=O)[nH]c1=O
2. CCC(C)c1ccc(S(=O)(=O)Nc2cccnc2)cc1.Cl (stereo not given)
3. Cc1cccc(NC(=O)C2CCCN(c3cnccn3)C2)c1 (stereo not given)
4. Cc1ccccc1S(=O)(=O)/N=C(/c1ccccc1)N(C)C
5. O=C(NCc1cccc(Cl)c1)c1ccncc1

[reply]
1. 12.5 µg/mL
2. 35.9 µg/mL
3. 27.2 µg/mL
4. 44.9 µg/mL
5. > 37 µg/mL

Hi there! I need solubility kinetic for each item below, if you can.
1. CCn1c(Oc2ccccc2)nc2c1c(=O)n(C)c(=O)n2C
2. Cn1cnnc1SCC(=O)NC1CCCCCC1

[reply]
37.8 µg/mL
> 40.3 µg/mL

---

Give measured solubility kinetic for each item. Keep answers brief.
Conditions: buffer; pH 7.4; 200.0 µM

[
  {
    "molecule": "N#Cc1ccc(OCC(=O)OCC(=O)c2ccc[nH]2)cc1",
    "quantityName": "solubility kinetic",
    "result": "> 42.6 µg/mL"
  },
  {
    "molecule": "COc1ccc(Br)cc1CN(C)C(=O)c1ccncc1",
    "quantityName": "solubility kinetic",
    "result": "> 50.3 µg/mL"
  },
  {
    "molecule": "CCOCCOc1cccc(C(=O)NC(C)c2ccc3ccccc3c2)c1 (stereo unspecified)",
    "quantityName": "solubility kinetic",
    "result": "1.6 µg/mL"
  },
  {
    "molecule": "N/C(=N\\OC(=O)c1ccc2c(c1)OCO2)c1ccncc1",
    "quantityName": "solubility kinetic",
    "result": "> 42.8 µg/mL"
  },
  {
    "molecule": "O=C(COC(=O)C1CC1)NCCc1ccccc1",
    "quantityName": "solubility kinetic",
    "result": "> 37.1 µg/mL"
  }
]

Switching to the query record.
[ask] May I ask what solubility kinetic has been recorded for O=C(CC(c1ccccc1)c1ccccc1O)N1CCCCC1 (stereo unspecified) ?
[reply] > 46.4 µg/mL

---

Settings: buffer; pH 7.4; 200.0 µM
Record form. Attribute: solubility kinetic. Fill in for each entry.
Give bare numbers, in µg/mL.

Take a look at these entries with their results.
[
  {
    "compound": "O=C(COC(=O)c1cccs1)Nc1ccccc1C(F)(F)F",
    "quantityName": "solubility kinetic",
    "result": 2.5
  },
  {
    "compound": "Cc1ccnc(NC(=O)CSc2ccccn2)c1",
    "quantityName": "solubility kinetic",
    "result": 36.7
  },
  {
    "compound": "Cc1ccc(NC(=O)CNC(=O)c2cccs2)c(O)c1",
    "quantityName": "solubility kinetic",
    "result": 21.7
  },
  {
    "compound": "CCCC(=O)OC/C(O)=C(\\C#N)c1nc2ccccc2[nH]1",
    "quantityName": "solubility kinetic",
    "result": 32.4
  },
  {
    "compound": "Cc1ccccc1NC(=O)CN1C(=O)c2ccccc2C1=O",
    "quantityName": "solubility kinetic",
    "result": 8.5
  }
]

Give one value of solubility kinetic per listed compound.
1. CN(C)c1ccc(/C=C(/NC(=O)c2ccccc2)C(=O)N2CCCC2)cc1
2. CCCCn1c(NC(=O)c2ccco2)c(C(=O)OCC)c2nc3ccccc3nc21
3. Cc1cc(C(=O)COC(=O)Cc2ccc(Cl)cc2)c(C)n1C

[reply]
47.7
4.9
21.3

For each entry beneath this line, provide reported solubility kinetic.
1. O=C(CCc1nc(-c2ccc(Cl)cc2)no1)NC1CCCC1
2. Cc1ccnc(NCc2c(O)ccc3ccccc23)c1
3. O=C(Cc1ccccc1)c1c[nH]c(C(=O)NC2CCCC2)c1
4. C/C(=C\C(=O)c1ncc(C(F)(F)F)cc1Cl)N(C)C
5. O=C(NCc1ccccc1Cl)c1cc(=O)[nH]c2ccccc12

[reply]
[6.4, 9.2, 2.6, 41, 7.4]

Quick one: give me solubility kinetic for each item below, same order please.
1. COc1ccc(NC(=O)NC(=O)c2ccccc2)cc1
2. CCc1cccc(NC(=O)C2CC2c2ccccc2)c1 (centres undefined)
3. CN1CCN(C(=O)c2cc([N+](=O)[O-])cc([N+](=O)[O-])c2)CC1

[reply]
1: 1.3; 2: 0.7; 3: 31.4

---

Conditions: buffer; pH 7.4; 200.0 µM
quantityName: solubility kinetic

Guide cases for solubility kinetic, answers given:
[
  {
    "molecule": "COc1ccc(C(=O)Nc2ccc(Nc3ccccc3)cc2)cc1OC",
    "solubility kinetic": "< 0.4 µg/mL"
  },
  {
    "molecule": "COc1ccc(C(=O)N[C@H](C(=O)NCCCSc2ccccc2)C(C)C)cc1",
    "solubility kinetic": "2.2 µg/mL"
  },
  {
    "molecule": "CCOc1ccc2nc(SCC(=O)NC3CC3)sc2c1",
    "solubility kinetic": "13.1 µg/mL"
  },
  {
    "molecule": "Cc1cccc(C2N=C(N)Nc3nc4ccccc4n32)c1 (stereo not given)",
    "solubility kinetic": "34.3 µg/mL"
  },
  {
    "molecule": "COC(=O)[C@H](CC(C)C)NC(=O)NCCC1=CCCCC1",
    "solubility kinetic": "> 44.5 µg/mL"
  }
]

Hi team, please reply with solubility kinetic for each item in this list.
1. Cc1ccnc(SCC(=O)N2CCCc3ccccc32)n1
2. CN(C)CC[n+]1ccc(C(=O)c2ccccc2)cc1.Cl.[Cl-]
3. Cc1cnc(C(=O)OCC(=O)N(Cc2ccccc2)C(C)(C)C)cn1
4. Cc1cc(C)nc(NC(=O)CSc2ncccn2)n1
5. Cc1ccc(NC(=O)N(CCC#N)Cc2ccccc2)cc1
6. O=C(Nc1c(Cl)ccc2nsnc12)c1ccc([N+](=O)[O-])o1

[reply]
["> 44.9 µg/mL", "> 49.1 µg/mL", "> 51.2 µg/mL", "> 41.3 µg/mL", "> 44 µg/mL", "> 48.7 µg/mL"]
